- assayRemarks: Solubility of granisetron in pMDI medium
- Format: physicochemical
- testSettings: pMDI medium (HFA 134a with ethanol), organic solvent or mixture, HFA 134a with Ethanol (9:1), ~24 Hours; read-out: Solubility, single determinations
readout: Solubility (µg/mL)
Note: unit µg/mL is implicit; provide only the numeric part.

Req: Need Solubility of CN1C2CCCC1CC(NC(=O)c1nn(C)c3ccccc13)C2 (stereo not shown) [granisetron] , thanks.
Resp: 90.8

----------
- assayRemarks: Solubility of granisetron in pMDI medium
- Format: physicochemical
- testSettings: pMDI medium (HFA 134a propellant), organic solvent or mixture, HFA 134a, 10 days; read-out: Solubility, single determinations
readout: solubility at 10 days (µg/mL)
Note: unit µg/mL is implicit; provide only the numeric part.

Req: Need solubility at 10 days of CN1C2CCCC1CC(NC(=O)c1nn(C)c3ccccc13)C2 (stereo not shown) [granisetron] , thanks.
Resp: 13.2

----------
- assayRemarks: Solubility of granisetron in pMDI medium
- Format: physicochemical
- testSettings: pMDI medium (HFA 134a with ethanol), organic solvent or mixture, HFA 134a with Ethanol (9:1), 10 days; read-out: Solubility, Average (RSD)
readout: solubility at 10 days (µg/mL)
Note: unit µg/mL is implicit; provide only the numeric part.

Req: Need solubility at 10 days of CN1C2CCCC1CC(NC(=O)c1nn(C)c3ccccc13)C2 (stereo not shown) , thanks.
Resp: 82.4

----------
- assayRemarks: Solubility of granisetron in pMDI medium
- Format: physicochemical
- testSettings: pMDI medium (HFA 134a with ethanol), organic solvent or mixture, HFA 134a with Ethanol (9:1), ~24 Hours; read-out: Solubility, Average (RSD)
readout: Solubility (µg/mL)
Note: unit µg/mL is implicit; provide only the numeric part.

Req: Need Solubility of CN1C2CCCC1CC(NC(=O)c1nn(C)c3ccccc13)C2 (stereo not shown) , thanks.
Resp: 85.5

These data points were gathered from patent US9918971B2.
